test system: Escherichia coli TOP10; test: shrunken log2 fold change of peptide-encoding DNA abundance (4.5 h post-induction vs induction); higher = less antimicrobial activity (less host growth inhibition); conditions: time post-induction: 4.5 h; library: site-saturation at positions 5, 18, 19, 20
Assign satisfied whenever shrunken log2 fold change does not fall below 0.1; assign not satisfied whenever it does.

Seq text	Classification
RRIRNRPPRLPRPRPRPAWCPRP	not satisfied
RRIRPRPPRLPRPRPRPQLRPRP	not satisfied
RRIRCRPPRLPRPRPRPLVDPRP	satisfied
RRIRMRPPRLPRPRPRPVLAPRP	satisfied
RRIRWRPPRLPRPRPRPSLQPRP	not satisfied
RRIRQRPPRLPRPRPRPCRAPRP	satisfied
RRIRCRPPRLPRPRPRPSPTPRP	not satisfied

###

tested on: Escherichia coli TOP10; assay: shrunken log2 fold change of peptide-encoding DNA abundance (4.5 h post-induction vs induction); higher = less antimicrobial activity (less host growth inhibition); conditions: time post-induction: 4.5 h; library: site-saturation at positions 5, 18, 19, 20;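 further: peptides expressed intracellularly from a pBAD plasmid library in pooled LB shake-flask culture, induced with 0.3% L-arabinose, DNA abundance read by NGS, three biological replicates, DESeq2 with apeglm shrinkage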
Known shrunken log2 fold change of a selection of sequences

Seq text	Experimental target	shrunken log2 fold change
RRIRERPPRLPRPRPRPCLWPRP	Escherichia coli TOP10	-0.0179
RRIRWRPPRLPRPRPRPLDNPRP	Escherichia coli TOP10	-0.23
RRIRVRPPRLPRPRPRPWPAPRP	Escherichia coli TOP10	-0.0676
RRIRMRPPRLPRPRPRPAHVPRP	Escherichia coli TOP10	0.176
RRIRARPPRLPRPRPRPDQRPRP	Escherichia coli TOP10	0.267
RRIRHRPPRLPRPRPRPDIIPRP	Escherichia coli TOP10	-0.0233
RRIRQRPPRLPRPRPRPSNAPRP	Escherichia coli TOP10	-0.198
RRIRTRPPRLPRPRPRPRPGPRP	Escherichia coli TOP10	0.621
RRIRARPPRLPRPRPRPALAPRP	Escherichia coli TOP10	0.554
RRIRERPPRLPRPRPRPSNIPRP	Escherichia coli TOP10	-0.662
RRIRLRPPRLPRPRPRPGHHPRP	Escherichia coli TOP10	-0.2
RRIRRRPPRLPRPRPRPFNNPRP	Escherichia coli TOP10	0.221
RRIRNRPPRLPRPRPRPFCFPRP	Escherichia coli TOP10	0.567
RRIRGRPPRLPRPRPRPAGWPRP	Escherichia coli TOP10	1.15
RRIRIRPPRLPRPRPRPRQAPRP	Escherichia coli TOP10	0.0194
RRIRDRPPRLPRPRPRPNVWPRP	Escherichia coli TOP10	0.234
RRIRMRPPRLPRPRPRPWVPPRP	Escherichia coli TOP10	-0.0184
RRIRWRPPRLPRPRPRPTCTPRP	Escherichia coli TOP10	0.441
RRIRTRPPRLPRPRPRPHEHPRP	Escherichia coli TOP10	-0.0451
RRIRCRPPRLPRPRPRPRFAPRP	Escherichia coli TOP10	0.356
RRIRQRPPRLPRPRPRPQTVPRP	Escherichia coli TOP10	-0.0925
RRIRARPPRLPRPRPRPCIHPRP	Escherichia coli TOP10	-0.438
RRIRNRPPRLPRPRPRPIPWPRP	Escherichia coli TOP10	-0.102
RRIRFRPPRLPRPRPRPGNIPRP	Escherichia coli TOP10	-0.0525
RRIRARPPRLPRPRPRPKPDPRP	Escherichia coli TOP10	0.582
RRIRTRPPRLPRPRPRPICDPRP	Escherichia coli TOP10	-0.168
RRIRLRPPRLPRPRPRPFGLPRP	Escherichia coli TOP10	-0.114
RRIRPRPPRLPRPRPRPRLIPRP	Escherichia coli TOP10	0.292
RRIRNRPPRLPRPRPRPHVTPRP	Escherichia coli TOP10	-0.357
RRIRIRPPRLPRPRPRPGGKPRP	Escherichia coli TOP10	-0.31
RRIRERPPRLPRPRPRPEVMPRP	Escherichia coli TOP10	0.378
RRIRQRPPRLPRPRPRPHMSPRP	Escherichia coli TOP10	-0.28
